Source of measurements: the DeepSol protein solubility set

Experiment: soluble on expression in E. coli; label from the status in PepcDB or PDB records
Outcome Measure: soluble on expression in E. coli

MAHHHHHHMHDIYLDNPSTFEILEKMFSLYVNTYPDNELPIGFILMGDFISLKFDYNKNFNDLYIKGFEKLSVLLISKFKLILQNCYLIFIPGKNDPCACKNSIPKMPILPYYIKKFEQNIQSFFSCKKKIIFATNPCRIRHFNKKMIFFRQDILNDLIWSSSINATDDNKNNLQDILISTIVGQSHIYPIPHDNRILKRYSSFLFLYPLPNFICISDNTCNSFISYASDNTSDSIISNSDLSFTKKKTFTVYNVLQHDAKRYVVPI	not soluble
KKVYLIHGWGANRHAFDDLMPRLPATWPVSAVDLPGHGDAPFAQPFDIEAAADGIAAQIDTSADILGWSLGGLVALYLAARHPDKVRSLCLTASFARLTAAEDYPEGLAAPALGKMVGAFRTDYAKHIKQFLQLQLLHTPDAAEIIGRILPDLARCGTPQALQEALDAAERADARHLLDKIDVPVLLVFGGKDAITPLRMGEYLHRHLKGSRLVVMEKAAHAPFLSHAEAFAALCRDFVEG	not soluble
